Task for the reader: assign each of the following binders its reported Normalized AAV9 binding capacity (%).
target: AAV9 viral particles (adeno-associated virus 9); assay: SPR (Biacore), polypeptide amine-coupled to CM5, AAV9 analyte; response normalized to SEQ ID NO:80
Give bare numbers, in %.

Binder	Normalized AAV9 binding capacity (%)
vh344 (SEQ ID NO:98) (VHH) VHH: QVQLQQSGGGSVQAGGSLRLSCAISGRTLSDYTMGWFRQRPGKEREFVAAISWSGAYTKYADSVKGRFTISRDNAKNTVYLQMNSLKPEDTAIYYCAAGPTGLLSKKATPADYDYWGQGTQVTVSS	100

# batch size: 3; output Normalized AAV9 binding capacity (%) per entry
1. vh251 (SEQ ID NO:93) (VHH) VHH: QVQLQQSGGGSVQTGGSLRLSCTISGRTLSDYTMGWFRQRPGKEREFVAAISWSGAYTKYADSVKGRFTISRDNAKNTVYLQMNSLKPEDTAVYYCAAGPTGLLSKKATPADYDYWGQGTQVTVSS
2. vh249 (SEQ ID NO:91) (VHH) VHH: QVQLQESGGGSVQAGGSLRLSCTISGRTLSDYTMGWFRQRPGKEREFVAAISWSGAYTKYADSVKGRFTISRDNAKNTVYLQMNSLKPEDTAVYYCAAGPTGLLSKKATPADYDYWGQGTQVTVSS
3. vh248 (SEQ ID NO:90) (VHH) VHH: QVQLEQSGGGSVQAGGSLRLSCTISGRTLSDYTMGWFRQRPGKEREFVAAISWSGAYTKYADSVKGRFTISRDNAKNTVYLQMNSLKPEDTAVYYCAAGPTGLLSKKATPADYDYWGQGTQVTVSS

A.
[99, 86, 105]
